- target: psBBOX (Pseudomonas sp. AK-1)
- Construct: recombinant, purified on HisTrap and Superdex S200; metal-free buffer
- Sequence (P80193 whole entry): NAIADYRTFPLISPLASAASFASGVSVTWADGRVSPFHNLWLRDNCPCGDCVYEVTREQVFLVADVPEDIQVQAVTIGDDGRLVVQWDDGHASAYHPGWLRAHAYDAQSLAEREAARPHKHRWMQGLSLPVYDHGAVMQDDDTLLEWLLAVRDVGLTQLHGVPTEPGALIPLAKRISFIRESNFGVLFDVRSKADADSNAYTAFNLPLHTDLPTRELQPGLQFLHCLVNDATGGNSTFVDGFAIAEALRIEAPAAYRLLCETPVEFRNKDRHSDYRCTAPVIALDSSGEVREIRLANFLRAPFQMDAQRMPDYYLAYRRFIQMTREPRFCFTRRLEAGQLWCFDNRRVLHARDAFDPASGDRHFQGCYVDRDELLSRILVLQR
- measurementNotes: 1H NMR (CPMG) protein titration
parameter: Kd

>  <structureNotation>
C[N+](C)(C)CCCC(=O)[O-]

>  <result>
5 µM

$$$$

// provenance: paper PMC4736438
